test_method_notes: Protein binding
recorded_endpoint: fraction unbound
No unit in the answer, only the number.

*Q* // fraction unbound lookup, key: CO[C@H]1C[C@@H]2CC[C@@H](C)[C@@](O)(O2)C(=O)C(=O)N2CCCC[C@H]2C(=O)O[C@H]([C@H](C)C[C@@H]2CC[C@@H](O)[C@H](OC)C2)CC(=O)[C@H](C)/C=C(\C)[C@@H](O)[C@@H](OC)C(=O)[C@H](C)C[C@H](C)/C=C/C=C/C=C/1C
*A* 0.049

These entries and their values trace back to patent US20240100025A1.
